- assayed-target: T1, 重组人CD40-his蛋白 (human, UniProt P25942 21-193)
- T1 construct: extracellular domain; Recombinant protein; also called 人CD40(ECD)-his; huCD40-his; not shown: his tag
- T1 sequence (P25942 21-193): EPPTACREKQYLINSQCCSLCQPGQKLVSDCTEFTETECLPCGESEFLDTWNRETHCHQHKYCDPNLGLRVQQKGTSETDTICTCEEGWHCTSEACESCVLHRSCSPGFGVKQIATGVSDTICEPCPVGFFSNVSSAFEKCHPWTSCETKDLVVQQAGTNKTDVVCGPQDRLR
- assay-summary: BLI (Fortebio Blitz), antibody on AMC sensor, huCD40-his 6.25-200 nM
# Lookup of reported kon keyed by entry
Lab book: enter the figure in M⁻¹ s⁻¹, no units written.

| binder | kon [M⁻¹ s⁻¹] |
| --- | --- |
| 人源化抗体31 (antibody, human IgG1, kappa, V domains shown, Humanized IgG1/kappa; also called 31A2-2-humanized; 31Humanized) VH: QVQLQESGPGLVKPSETLSLTCTVSGFSLTSYSVHWVRQPPGKGLEWLGMIWSGGSTDYNAAFISRLTISKDNSKSQVSLKLSSVTAADTAVYYCARVGGDYWGQGTTVTVSS VL: DVVMTQSPLSLPVTLGQPASITCRSSQSLLHSRGNTYLHWFQQRPGQSPRLLIYKVSNRFSGVPDRFSGSGSGTDFTLKISRVEAEDVGVYFCFQTTHVPWTFGQGTRLEIKR | 135000 |

## Task Item 人源化抗体42 (antibody, human IgG1, kappa, V domains shown, Humanized IgG1/kappa; also called 42D11-8-humanized; 42Humanized) VH: QVQLQESGPGLVKPSQTLSLTCTVSGFSLTSYGVHWVRQHPGKGLEWLGMIWSGGSTDYNSAFISRLTISKDNSKSQVSLKLSSVTAADTAVYYCARVGGDYWGQGTTVTVSS VL: DIVITQSPLSLPVTLGQPASITCRSSQSLVHSRGNTYLHWFQQRPGQSPRLLIYKVSNRFSGVPDRFSGSGSGTDFTLKISRVEAEDVGVYFCFQTTHVPWTFGQGTRLEIKR has what recorded kon?
## Result 94000

## Task Item 嵌合抗体C31 (antibody, human IgG1, kappa, V domains shown, Mouse-human chimeric IgG1/kappa expressed in Expi-293 cells; also called 31Chimeric; 抗体31A2-2的鼠人嵌合抗体) VH: QVQLKESGPGLVQPSQSLSITCTVSGFSLTNYSVHWVRQSPGKGLEWLGMIWSGGSTDYNAAFISRLSISKDNFKSQVFFKMNSLQADDTAIYYCARVGGDYWGQGTTVTVSS VL: DVLMTQTPLSLPVSLGDPASISCRSSQSLLHSRGNTYLHWFLQKPGQSPKLLIYKVSNRFSGVPDRFSGSGSGTDFTLRISRVEAEDLGVYFCFQTTHVPWTFGGGTKLEIKR has what recorded kon?
## Result 87500

## Task Item APX005M (antibody, V domains shown) VH: QVQLVESGGGVVQPGRSLRLSCAASGFSFSSTYVCWVRQAPGKGLEWIACIYTGDGTNYSASWAKGRFTISKDSSKNTVYLQMNSLRAEDTAVYFCARPDITYGFAINFWGPGTLVTVSS VL: DIQMTQSPSSLSASVGDRVTIKCQASQSISSRLAWYQQKPGKPPKLLIYRASTLASGVPSRFSGSGSGTDFTLTISSLQPEDVATYYCQCTGYGISWPIGGGTKVEIK has what recorded kon?
## Result 140000

Hello, the source for this data is patent CN115232210A, in case you need it.
